Ref: patent US12528832B2

- methodSummary: Stability test of salt form screening (25° C., R.T./75% RH, light; HPLC, XRPD)
- Type: physicochemical
- settings: Initial, 0 Days
Counter-ions that a name gives are not always drawn.
Reported Total impurities (%) values for a set of compounds
Give the quantity in %, number only.

Some solved cases for reference:
compound="Cc1c(S(C)(=O)=O)c(-c2cc(F)cc(N3CCN(c4ccc(NS(=O)(=O)c5ccc(N[C@H](CCN6CCC(C(=O)OCCCP(=O)(O)O)CC6)CSc6ccccc6)c(S(=O)(=O)C(F)(F)F)c5)cc4)CC3)c2)c(-c2ccc(Cl)cc2)n1C(C)C [Amorphous form XVI of meglumine salt]" value=0.83
compound="Cc1c(S(C)(=O)=O)c(-c2cc(F)cc(N3CCN(c4ccc(NS(=O)(=O)c5ccc(N[C@H](CCN6CCC(C(=O)OCCCP(=O)(O)O)CC6)CSc6ccccc6)c(S(=O)(=O)C(F)(F)F)c5)cc4)CC3)c2)c(-c2ccc(Cl)cc2)n1C(C)C [Amorphous form XII of potassium salt]" value=1.40
compound="Cc1c(S(C)(=O)=O)c(-c2cc(F)cc(N3CCN(c4ccc(NS(=O)(=O)c5ccc(N[C@H](CCN6CCC(C(=O)OCCCP(=O)(O)O)CC6)CSc6ccccc6)c(S(=O)(=O)C(F)(F)F)c5)cc4)CC3)c2)c(-c2ccc(Cl)cc2)n1C(C)C [Amorphous form XV of maleate salt]" value=0.73

Now look at this one.
# Total impurities (%) (compound: Cc1c(S(C)(=O)=O)c(-c2cc(F)cc(N3CCN(c4ccc(NS(=O)(=O)c5ccc(N[C@H](CCN6CCC(C(=O)OCCCP(=O)(O)O)CC6)CSc6ccccc6)c(S(=O)(=O)C(F)(F)F)c5)cc4)CC3)c2)c(-c2ccc(Cl)cc2)n1C(C)C [Amorphous form XIII of sodium salt] ) is 1.65
